assay: AUC (0 to infinity) in beagle dog at 5 mg/kg, po administered via gavage as microsuspension pre-treated with 6 ug/kg, im pentagastrin 15 to 30 mins before compound dosing; format: ADME, organism-based, Canis lupus familiaris; conditions: in vivo
recorded-endpoint: AUC(0-inf) (µM·h)
The reply should contain only the number, in µM·h.

Which AUC(0-inf) value is on record for "C=C(C)[C@@H]1CC[C@]2(NCCN3CCS(=O)(=O)CC3)CC[C@]3(C)[C@H](CC[C@@H]4[C@@]5(C)CC=C(c6ccc(C(=O)O)cc6)C(C)(C)[C@@H]5CC[C@]43C)[C@@H]12" ?
276

###

test: Oral bioavailability in CD1 mouse at 5 mg/kg; type: ADME, organism-based; conditions: in vivo
recorded-endpoint: bioavailability
# answer = value followed by unit

What measured bioavailability goes with C=C(C)[C@@H]1CC[C@]2(NCCN3CCS(=O)(=O)CC3)CC[C@]3(C)[C@H](CC[C@@H]4[C@@]5(C)CC=C(c6ccc(C(=O)O)cc6)C(C)(C)[C@@H]5CC[C@]43C)[C@@H]12 [BMS-955176] ?
26.8%

###

assay: Oral bioavailability in MDR1 a/b knockout mouse at 5 mg/kg administered via gavage; format: ADME, organism-based; conditions: in vivo
recorded-endpoint: bioavailability (%)
Value expressed in %; do not type the unit.

May I ask what bioavailability has been recorded for "C=C(C)[C@@H]1CC[C@]2(NCCN3CCS(=O)(=O)CC3)CC[C@]3(C)[C@H](CC[C@@H]4[C@@]5(C)CC=C(c6ccc(C(=O)O)cc6)C(C)(C)[C@@H]5CC[C@]43C)[C@@H]12" ?
45

###

assay: Cmax in Sprague-Dawley rat at 5 mg/kg, po; format: ADME, organism-based; design: dose 5 mg/kg, route oral; conditions: in vivo
recorded-endpoint: Cmax (nM)
Write the value in nM as a bare number.

Endpoint output: Cmax of "C=C(C)[C@@H]1CC[C@]2(NCCN3CCS(=O)(=O)CC3)CC[C@]3(C)[C@H](CC[C@@H]4[C@@]5(C)CC=C(c6ccc(C(=O)O)cc6)C(C)(C)[C@@H]5CC[C@]43C)[C@@H]12" . Value?
1200

###

test: Half life in human hepatocytes at 0.5 uM after 1 hr in presence of NADPH by LC-MS/MS analysis; assay type: ADME, cell-based, Hepatocyte
recorded-endpoint: half-life at 0.5 µM

# half-life at 0.5 µM lookup, item "C=C(C)[C@@H]1CC[C@]2(NCCN3CCS(=O)(=O)CC3)CC[C@]3(C)[C@H](CC[C@@H]4[C@@]5(C)CC=C(c6ccc(C(=O)O)cc6)C(C)(C)[C@@H]5CC[C@]43C)[C@@H]12"
> 2 h

###

test: Half life in mouse liver microsomes at 0.5 uM after 1 hr in presence of NADPH by LC-MS/MS analysis; type: ADME, microsome
recorded-endpoint: half-life at 0.5 µM

Which half-life at 0.5 µM value belongs to C=C(C)[C@@H]1CC[C@]2(NCCN3CCS(=O)(=O)CC3)CC[C@]3(C)[C@H](CC[C@@H]4[C@@]5(C)CC=C(c6ccc(C(=O)O)cc6)C(C)(C)[C@@H]5CC[C@]43C)[C@@H]12 [BMS-955176] ?
> 2 h

###

test: AUC (0 to infinity) in Sprague-Dawley rat at 5 mg/kg, po; format: ADME, organism-based; design: dose 5 mg/kg, time infinity, route oral; settings: in vivo
recorded-endpoint: AUC(0-inf) (µM·h)
Give the value in µM·h but do not write µM·h after it.

What does the data say about its AUC(0-inf)? Entry: "C=C(C)[C@@H]1CC[C@]2(NCCN3CCS(=O)(=O)CC3)CC[C@]3(C)[C@H](CC[C@@H]4[C@@]5(C)CC=C(c6ccc(C(=O)O)cc6)C(C)(C)[C@@H]5CC[C@]43C)[C@@H]12"
14.2

###

test: Half life in mouse hepatocytes at 0.5 uM after 1 hr in presence of NADPH by LC-MS/MS analysis; format: ADME, cell-based, Hepatocyte
recorded-endpoint: half-life at 0.5 µM

Please look up its half-life at 0.5 µM: C=C(C)[C@@H]1CC[C@]2(NCCN3CCS(=O)(=O)CC3)CC[C@]3(C)[C@H](CC[C@@H]4[C@@]5(C)CC=C(c6ccc(C(=O)O)cc6)C(C)(C)[C@@H]5CC[C@]43C)[C@@H]12 [BMS-955176]
> 2 h

###

# key: entry, value: CC50
experiment: in vitro; settings: human, MT2 cells
Description: Cytotoxicity against human MT2 cells assessed as reduction in cell viability
Numeric answer only, unit µM assumed.

>  <smi>
C=C(C)[C@@H]1CC[C@]2(NCCN3CCCCS3(=O)=O)CC[C@]3(C)[C@H](CC[C@@H]4[C@@]5(C)CC=C(c6ccc(C(=O)O)cc6)C(C)(C)[C@@H]5CC[C@]43C)[C@@H]12

>  <CC50 (µM)>
9.53

$$$$

I'd like to know its CC50. The molecule in question is "C=C(C)[C@@H]1CC[C@]2(C(=O)NCCCN3CCS(=O)(=O)CC3)CC[C@]3(C)[C@H](CC[C@@H]4[C@@]5(C)CC=C(c6ccc(C(=O)O)cc6)C(C)(C)[C@@H]5CC[C@]43C)[C@@H]12"
10.6

###

# pEC50 listing for each entry below
tested on: Human immunodeficiency virus 1; assay: microbe, parasite or virus in culture; conditions: Human immunodeficiency virus 1, MT2
Description: Antiviral activity against HIV1 expressing gag delta V370 mutant infected in human MT2 cells after 4 to 5 days by dual luciferase reporter gene assay
Reminder that pEC50 is minus the log10 of a molar concentration.

Some entries whose results are on file:
>  <compound>
C=C(C)[C@@H]1CC[C@]2(C(=O)NCCN3CCS(=O)(=O)CC3)CC[C@]3(C)[C@H](CC[C@@H]4[C@@]5(C)CC=C(c6ccc(C(=O)O)cc6)C(C)(C)[C@@H]5CC[C@]43C)[C@@H]12

>  <recorded-endpoint>
pEC50

>  <result-value>
7.22

$$$$
>  <compound>
C=C(C)[C@@H]1CC[C@]2(NCCO)CC[C@]3(C)[C@H](CC[C@@H]4[C@@]5(C)CC=C(c6ccc(C(=O)O)cc6)C(C)(C)[C@@H]5CC[C@]43C)[C@@H]12

>  <recorded-endpoint>
pEC50

>  <result-value>
7.18

$$$$
>  <compound>
C=C(C)[C@@H]1CC[C@]2(NC(=O)C(C)N3CCS(=O)(=O)CC3)CC[C@]3(C)[C@H](CC[C@@H]4[C@@]5(C)CC=C(c6ccc(C(=O)O)cc6)C(C)(C)[C@@H]5CC[C@]43C)[C@@H]12 (some centres undefined)

>  <recorded-endpoint>
pEC50

>  <result-value>
6.91

$$$$

Okay, next one:
What value of pEC50 has been recorded for this entry: "C=C(C)[C@@H]1CC[C@]2(NCCN3CCCCS3(=O)=O)CC[C@]3(C)[C@H](CC[C@@H]4[C@@]5(C)CC=C(c6ccc(C(=O)O)cc6)C(C)(C)[C@@H]5CC[C@]43C)[C@@H]12"
7.43

###

test: in vitro; settings: human, MT2 cells
Consider the following molecules and their measured CC50 readings.
Reply numerically in µM, unit not repeated.

Answered cases to consult:
>  <molecule>
C=C(C)[C@@H]1CC[C@]2(NCCN3CCC4(C3)CN(S(C)(=O)=O)C4)CC[C@]3(C)[C@H](CC[C@@H]4[C@@]5(C)CC=C(c6ccc(C(=O)O)cc6)C(C)(C)[C@@H]5CC[C@]43C)[C@@H]12

>  <unit-of-measurement>
µM

>  <CC50>
11

$$$$
>  <molecule>
C=C(C)[C@@H]1CC[C@]2(NCCN3CC4C(C3)C4NS(C)(=O)=O)CC[C@]3(C)[C@H](CC[C@@H]4[C@@]5(C)CC=C(c6ccc(C(=O)O)cc6)C(C)(C)[C@@H]5CC[C@]43C)[C@@H]12 (some centres undefined)

>  <unit-of-measurement>
µM

>  <CC50>
15.2

$$$$
>  <molecule>
C=C(C)[C@@H]1CC[C@]2(NC(=O)C(C(C)C)N3CCS(=O)(=O)CC3)CC[C@]3(C)[C@H](CC[C@@H]4[C@@]5(C)CC=C(c6ccc(C(=O)O)cc6)C(C)(C)[C@@H]5CC[C@]43C)[C@@H]12 (some centres undefined)

>  <unit-of-measurement>
µM

>  <CC50>
23.5

$$$$

Query molecule follows.
I am curious: what CC50 value has been reported for "C=C(C)[C@@H]1CC[C@]2(NCCC3CCS(=O)(=O)CC3)CC[C@]3(C)[C@H](CC[C@@H]4[C@@]5(C)CC=C(c6ccc(C(=O)O)cc6)C(C)(C)[C@@H]5CC[C@]43C)[C@@H]12" ?
4.55
